- Assay remarks: Gadolinium(III) stability constants (log K value) for the compound polyamino carboxylate derivative
The label depends only on log K Gd(III) stability constant: yes (1) if it is at least 20, no (0) if it is smaller.

Compound: CCN(CCN(CC(=O)O)CC(=O)O)CCN(CC(=O)O)CC(=O)O
Group: no (0)
--
Compound: CCCOC(=O)CN(CCN(CCN(CC(=O)O)CC(=O)O)CC(=O)O)CC(=O)O
Group: no (0)
--
Compound: O=C(O)CN(CCN(CC(=O)O)CC(=O)O)CCN(CC(=O)O)C(COCc1ccccc1)C(=O)O (stereo not given)
Group: yes (1)

Turning to the following compound.
Ask | // inclusive: log K Gd(III) stability constant at least 20? input: O=C(O)CN(CCN(CC(=O)O)CC(=O)O)CCN(CC(=O)O)CC(=O)O [PENTETIC ACID]
Reply | yes (1)
